- assay.system: T1, GST-RAB11a (1-173, Q70L mutant) (UniProt P62491 1-173, Q70L)
- T1 construct: source: E. coli BL21, purified (glutathione sepharose, Superdex 75 gel filtration)
- T1 sequence (looked up): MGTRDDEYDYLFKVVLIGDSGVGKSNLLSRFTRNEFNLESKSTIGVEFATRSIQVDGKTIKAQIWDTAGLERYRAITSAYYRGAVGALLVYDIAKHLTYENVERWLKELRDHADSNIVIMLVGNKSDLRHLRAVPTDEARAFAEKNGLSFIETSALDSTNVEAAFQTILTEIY
- test.description: fluorescence polarisation; FITC-peptide 25 nM with threefold dilutions of GST-RAB protein; 20 mM Tris pH 8.0, 150 mM NaCl, 5 mM MgCl2, 2 mM DTT, 10 µM GTP, 2% glycerol; room temperature, 30 min; apparent Kd from a sigmoidal (4-parameter) fit, 95% confidence interval
- test.parameters: both partners purified
Square brackets hold non-standard residues; d marks the D form. Ends that are not written are not given here. * marks the point of attachment. FITC = O=C1OC2(c3ccc(O)cc3Oc3cc(O)ccc32)c2ccc(NC(=S)*)cc21; Met(O) = CS(=O)CC[C@H](N)C(=O)O; PEG = not defined here
Form field: Kd (one value per entry).

{FITC-PEG}-KQEEINFRLQDYIDRIIVAI[Met(O)]ETNPSILEVK (reading uncertain, also called fRFP5; source: synthetic peptide (separable byproduct of chemical synthesis, HPLC purified)) [FITC-RFP5 (FIP3 RAB-binding domain peptide with oxidised methionine)]; > 5 µM
{FITC-PEG}-ERDTHIRELEDYIDNLLVRVMEETPSILRVPR (reading uncertain, limits worked out from the printed L485, V486 and M489; also called fRFP2; FIP2 peptide; source: synthetic peptide (Fmoc solid phase, HPLC purified)) [FITC-RFP2 (unmodified FIP2 RAB-binding domain peptide)]; > 5 µM

Now consider the entry below.
The binder identified as {FITC-PEG}-KQEEINFRLQDYIDRIIVAIMETNPSILEVK (reading uncertain, also called fRFP3; FIP3 peptide; source: synthetic peptide (Fmoc solid phase, HPLC purified)) [FITC-RFP3 (unmodified FIP3 RAB-binding domain peptide)] registered its Kd at 2.3 µM
